assay: Chromogenic reaction of degrading herbicides in bacteria: 2,4-D; assay type: cell-based, Escherichia coli; settings: recombinant E. coli expressing the gene, 2,4-D added to the medium; red = phenols
MEASUREMENT_LABEL: Chromogenic reaction of degrading herbicides in bacteria: 2,4-D

{"MOLECULE": "QYD72: AAD-like enzyme, SEQ ID NO. 143 (protein, Synthetic polypeptide, QYD72, D72) MAADAPFVVKPLPASFGAVVTGLALADLDEAAFAALYRTWLDYALLIFPGQHLDRDQQIAFARRFGPLEFDIAPISNVRSDGSVRPDDDADDVVKVLKGNMGWHCDSTYMPVQAKGAVFTAHVVPEDGGETDWADMRAAYDALDPAMRRRIEGLSAYHSLRHSQGKLGHVHKPGSAYSGYGMTVEAPPLRPLVKVHPETSRKTLMVGRHAYGIPGFEDAESERLLDELADFACRPPRTWRHSWTPGDAVIWDNRALMHRACPWDMTRPRVMYHSRLAGDPVAEFAAPA", "RECORDED_VALUE": "Yes"}
{"MOLECULE": "QYD64: AAD-like candidate enzyme; 100.00% identical to US20180066275-0002 (protein, Synthetic polypeptide, QYD64, D64) MSLQLKPLHPVFGAEASGLDLTRPLSDADVRAVNAAMNEHAVLVFRGQPLTAQQQLDFAKHFGPLDIGLKRVFKRPERLEDERLIDISNVDAQGNIARRDSPKNLSNFANQLWHSDSSFMNPRAAYSMLHCVIKPSWGGNTEFADLRHAYDTLDERTKAEIQDLKAEHFALHTRILLGDDAYTDDQKKEIPPAVWPLADTHPGSGRKVLFVGVHAREIIGWPVAEARMYLSDLLEHATRRENVYVHEWTPGDLVIWDNRSTLHRGRRYDITERRELRRTTINDTPEAMLMAA", "RECORDED_VALUE": "Yes"}
